target_entity: T1, SARS-CoV2 Spike ecto foldon Trimer expressed with a C-terminal myc-myc-hexahistidine (SARS-CoV-2, UniProt P0DTC2 14-1213)
T1 construct: extracellular domain
experimental_details: SPR Biacore, mAb captured by anti-hFc, 37C
Hi, to clarify the labels: met covers t½ from 200 min upward, not met covers anything below 200 min.

mAb14281 (antibody, V domains shown) VH: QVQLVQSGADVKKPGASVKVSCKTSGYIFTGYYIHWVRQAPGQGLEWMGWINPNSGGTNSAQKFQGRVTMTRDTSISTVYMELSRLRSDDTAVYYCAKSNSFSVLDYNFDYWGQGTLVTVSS VL: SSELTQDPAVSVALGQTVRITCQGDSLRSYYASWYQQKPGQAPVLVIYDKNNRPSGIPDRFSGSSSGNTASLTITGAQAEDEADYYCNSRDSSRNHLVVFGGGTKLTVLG: not met
mAb14232 (antibody, V domains shown) VH: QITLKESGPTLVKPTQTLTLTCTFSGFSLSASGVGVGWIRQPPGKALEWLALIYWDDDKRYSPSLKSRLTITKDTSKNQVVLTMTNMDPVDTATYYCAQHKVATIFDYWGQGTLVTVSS VL: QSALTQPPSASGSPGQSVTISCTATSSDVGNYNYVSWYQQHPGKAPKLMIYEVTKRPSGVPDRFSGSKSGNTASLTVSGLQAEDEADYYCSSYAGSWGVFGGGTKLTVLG: not met
mAb13458 (antibody, V domains shown) VH: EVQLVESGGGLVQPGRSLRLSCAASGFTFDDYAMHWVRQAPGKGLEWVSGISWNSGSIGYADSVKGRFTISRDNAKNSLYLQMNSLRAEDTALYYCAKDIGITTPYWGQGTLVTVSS VL: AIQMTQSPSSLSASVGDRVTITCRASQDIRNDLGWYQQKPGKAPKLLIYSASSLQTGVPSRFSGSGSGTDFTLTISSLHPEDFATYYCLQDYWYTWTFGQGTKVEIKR: met
mAb14255 (antibody, V domains shown) VH: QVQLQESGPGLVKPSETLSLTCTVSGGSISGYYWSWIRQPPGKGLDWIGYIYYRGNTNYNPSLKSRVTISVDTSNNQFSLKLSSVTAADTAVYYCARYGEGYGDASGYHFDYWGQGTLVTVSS VL: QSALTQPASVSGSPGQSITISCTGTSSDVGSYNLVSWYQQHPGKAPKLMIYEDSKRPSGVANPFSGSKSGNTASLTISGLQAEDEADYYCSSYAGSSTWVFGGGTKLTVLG: not met
mAb14280 (antibody, V domains shown) VH: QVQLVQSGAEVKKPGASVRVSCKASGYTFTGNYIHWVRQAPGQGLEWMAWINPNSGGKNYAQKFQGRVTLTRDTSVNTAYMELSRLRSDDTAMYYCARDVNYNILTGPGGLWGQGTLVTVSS VL: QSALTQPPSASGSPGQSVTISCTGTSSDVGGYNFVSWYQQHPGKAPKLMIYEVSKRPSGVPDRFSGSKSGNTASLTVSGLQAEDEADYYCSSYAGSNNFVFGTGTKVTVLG: met
mAb14257 (antibody, V domains shown) VH: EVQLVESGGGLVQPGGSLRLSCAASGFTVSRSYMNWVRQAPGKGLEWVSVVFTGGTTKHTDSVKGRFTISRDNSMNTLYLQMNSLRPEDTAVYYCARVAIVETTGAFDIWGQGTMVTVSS VL: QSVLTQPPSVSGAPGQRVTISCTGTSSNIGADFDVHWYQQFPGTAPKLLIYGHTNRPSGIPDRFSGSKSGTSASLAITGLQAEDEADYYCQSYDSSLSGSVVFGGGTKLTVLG: not met
mAb15162 (antibody, V domains shown) VH: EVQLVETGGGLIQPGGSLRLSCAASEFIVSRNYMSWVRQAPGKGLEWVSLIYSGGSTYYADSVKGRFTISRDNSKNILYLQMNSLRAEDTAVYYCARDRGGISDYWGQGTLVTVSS VL: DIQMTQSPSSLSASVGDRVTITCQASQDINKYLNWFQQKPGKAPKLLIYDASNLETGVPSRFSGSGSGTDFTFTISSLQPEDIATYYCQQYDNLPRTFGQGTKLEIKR: not met
mAb15151 (antibody, V domains shown) VH: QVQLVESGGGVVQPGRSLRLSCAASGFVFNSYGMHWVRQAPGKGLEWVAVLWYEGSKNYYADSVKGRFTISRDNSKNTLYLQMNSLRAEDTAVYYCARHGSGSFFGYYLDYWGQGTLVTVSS VL: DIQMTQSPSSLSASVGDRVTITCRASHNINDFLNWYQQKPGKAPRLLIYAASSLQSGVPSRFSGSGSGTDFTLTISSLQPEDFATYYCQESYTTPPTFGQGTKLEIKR: not met
mAb14289 (antibody, V domains shown) VH: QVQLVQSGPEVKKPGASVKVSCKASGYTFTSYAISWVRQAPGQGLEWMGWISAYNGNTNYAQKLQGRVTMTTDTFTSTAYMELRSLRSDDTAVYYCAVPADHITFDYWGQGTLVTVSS VL: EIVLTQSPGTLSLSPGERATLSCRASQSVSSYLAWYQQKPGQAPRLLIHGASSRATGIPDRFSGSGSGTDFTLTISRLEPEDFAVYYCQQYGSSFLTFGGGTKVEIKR: not met

Field: next binder
Qu. # check: t½ of mAb14235 (antibody, V domains shown) VH: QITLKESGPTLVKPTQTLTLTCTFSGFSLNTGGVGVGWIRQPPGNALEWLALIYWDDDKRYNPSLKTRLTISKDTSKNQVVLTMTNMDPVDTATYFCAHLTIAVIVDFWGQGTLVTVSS VL: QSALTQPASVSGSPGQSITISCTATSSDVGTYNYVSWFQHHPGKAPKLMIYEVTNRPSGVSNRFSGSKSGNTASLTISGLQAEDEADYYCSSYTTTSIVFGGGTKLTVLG is greater than or equal to 200 min
Ans. met

Data origin: patent US20260069689A1
